Overview of reported pIC50 across a group of compounds:
target: microbial XO (xanthine oxidase); experiment: Xanthine oxidase inhibitory activity, HPLC-PAD monitoring of uric acid formation; details: read-out: IC50 of XO inhibition as concentration
Please note pIC50 is a logarithmic value: minus log10 of concentration in mol/L. Answer with that number alone.

mol: O=C(/C=C/c1ccc(O)c(O)c1)O[C@H](Cc1ccc(O)c(O)c1)C(=O)O
pIC50: 4.36

mol: Oc1ncnc2[nH]ncc12
pIC50: 5.26

Below: the item to evaluate.
Give reported pIC50 value for O=C(O)/C=C/c1ccc(O)c(O)c1
5.55
